ASSAY TARGET: UniProt:Q9UHD2
ASSAY NOTES: TBK Biochemical Assay
EXPERIMENTAL SETUP: read-out: TBK1 IC50
Counter-ions that a name gives are not always drawn.
PROPERTY: IC50

Input line: I would be grateful if you could share the reported IC50 for COc1cc(C(=O)N2CCCCN2)cnc1-c1cc2nccc(-c3ccc(OC4CCOCC4)c(C#N)c3)c2o1 [Compound 407, hydrochloride] .
Output line: < 100 nM

Input line: I would be grateful if you could share the reported IC50 for CN(C)C(=O)c1ccc(-c2cc3nccc(-c4ccc(C5(N6CCOCC6)CC5)c(C#N)c4)c3o2)cc1 [Compound 287, hydrochloride] .
Output line: > 5000 nM

Input line: I would be grateful if you could share the reported IC50 for COc1cc(C(=O)NC(C)(C)CN(C)C)ccc1-c1cc2nccc(-c3ccc(NC4CCOCC4)c(C#N)c3)c2o1 .
Output line: < 100 nM

Input line: I would be grateful if you could share the reported IC50 for COc1cc(C(=O)NC2CN(CC(C)C)C2)ccc1-c1cc2nccc(-c3ccc(OC4CCOCC4)c(C#N)c3)c2o1 .
Output line: < 100 nM

----------
ASSAY TARGET: IKKε (Homo sapiens)
Sequence (Q14164 whole entry, species assumed): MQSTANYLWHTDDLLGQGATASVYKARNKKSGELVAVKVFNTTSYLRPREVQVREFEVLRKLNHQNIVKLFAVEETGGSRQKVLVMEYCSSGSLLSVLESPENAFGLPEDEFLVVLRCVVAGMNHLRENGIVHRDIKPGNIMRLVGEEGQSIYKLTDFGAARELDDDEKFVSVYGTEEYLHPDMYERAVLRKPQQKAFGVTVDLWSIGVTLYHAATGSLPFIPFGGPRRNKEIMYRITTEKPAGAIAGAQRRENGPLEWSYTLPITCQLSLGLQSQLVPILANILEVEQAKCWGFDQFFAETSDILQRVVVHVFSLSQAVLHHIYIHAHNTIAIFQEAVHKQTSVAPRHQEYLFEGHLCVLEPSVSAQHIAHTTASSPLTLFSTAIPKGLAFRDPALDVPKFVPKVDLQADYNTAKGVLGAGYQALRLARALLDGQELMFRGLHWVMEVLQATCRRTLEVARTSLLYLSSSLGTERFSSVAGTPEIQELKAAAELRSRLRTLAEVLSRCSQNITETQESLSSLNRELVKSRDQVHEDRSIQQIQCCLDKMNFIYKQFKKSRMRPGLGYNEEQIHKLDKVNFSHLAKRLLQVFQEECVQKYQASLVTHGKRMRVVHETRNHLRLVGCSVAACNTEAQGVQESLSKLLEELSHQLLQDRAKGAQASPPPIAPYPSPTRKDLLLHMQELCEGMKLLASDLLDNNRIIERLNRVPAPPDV
ASSAY NOTES: IKKe Biochemical Assay
EXPERIMENTAL SETUP: read-out: IKKε IC50
Structures can show the parent of a compound that is named as a salt.
PROPERTY: IC50

Input line: I would be grateful if you could share the reported IC50 for COc1cc(C(=O)N(C)C)cnc1-c1cc2ncc(Cl)c(-c3ccc(OC4CCOCC4)c(C#N)c3)c2o1 [Compound 336, hydrochloride] .
Output line: 1000 to 5000 nM

Input line: I would be grateful if you could share the reported IC50 for COc1cc(C(=O)N(C)C)ncc1-c1cc2nccc(-c3ccc(OC4CCOCC4)c(C#N)n3)c2o1 [Compound 387, hydrochloride] .
Output line: < 100 nM

Input line: I would be grateful if you could share the reported IC50 for COc1cc(C(=O)N2CCC(F)(F)C2)ccc1-c1cc2nccc(-c3ccc(OC4CCOCC4)c(C#N)c3)c2o1 .
Output line: < 100 nM

Input line: I would be grateful if you could share the reported IC50 for COc1cc(C(=O)N(C)C)ccc1-c1cc2nccc(Nc3ccc(OC4CCOCC4)c(C#N)c3)c2o1 .
Output line: > 5000 nM

Input line: I would be grateful if you could share the reported IC50 for CN(C)C(=O)c1ccc(-c2cc3nccc(-c4ccc(N5CC[C@H](F)C5)c(C#N)c4)c3o2)cc1 .
Output line: < 100 nM

Input line: I would be grateful if you could share the reported IC50 for COc1cc(C(=O)N(C)C)ccc1-c1cc2nccc(-c3ccc(N(C)C4CCOCC4)c(C#N)c3)c2o1 .
Output line: < 100 nM

Input line: I would be grateful if you could share the reported IC50 for CN(C)C(=O)c1ccc(-c2cc3nccc(-c4ccc(OC5CCOCC5)c(C#N)c4)c3o2)nn1 [Compound 242, hydrochloride] .
Output line: 100 to 1000 nM

Input line: I would be grateful if you could share the reported IC50 for CN(C)C(=O)c1ccc(-c2cc3nccc(-c4ccc(OC5CC6(COC6)C5)c(C#N)c4)c3o2)cc1 .
Output line: 100 to 1000 nM

Input line: I would be grateful if you could share the reported IC50 for COc1cc(C(=O)N(C)C)ccc1-c1cc2nccc(-c3cnc(OC4CCOCC4)c(C#N)c3)c2o1 .
Output line: < 100 nM

----------
ASSAY TARGET: UniProt Q9UHD2
ASSAY NOTES: TBK Biochemical Assay
EXPERIMENTAL SETUP: read-out: TBK1 IC50
pIC50: −log10 of the molar value.
Please go through the items and note down their pIC50.

Input line: I would be grateful if you could share the reported pIC50 for CNC(=O)c1ccc(-c2cc3nccc(-c4ccc(OC5CCOCC5)c(C#N)c4)c3o2)c(OC)c1 .
Output line: > 7.00

Input line: I would be grateful if you could share the reported pIC50 for COc1cc(C(=O)N2CC(CO)C2)ccc1-c1cc2nccc(-c3ccc(OC4CCOCC4)c(C#N)c3)c2o1 .
Output line: > 7.00

Input line: I would be grateful if you could share the reported pIC50 for COc1cc(C(=O)N2CCN(CCO)CC2)ccc1-c1cc2nccc(-c3ccc(OC4CCOCC4)c(C#N)c3)c2o1 .
Output line: > 7.00

Input line: I would be grateful if you could share the reported pIC50 for CN(C)C(=O)c1ccc(-c2cc3nccc(-c4ccc(NC5CCOC6(CC6)C5)c(C#N)c4)c3o2)cc1 (stereo not shown) .
Output line: 6.00 to 7.00

----------
ASSAY TARGET: TBK1 (Homo sapiens, UniProt Q9UHD2)
Sequence (Q9UHD2 1-729): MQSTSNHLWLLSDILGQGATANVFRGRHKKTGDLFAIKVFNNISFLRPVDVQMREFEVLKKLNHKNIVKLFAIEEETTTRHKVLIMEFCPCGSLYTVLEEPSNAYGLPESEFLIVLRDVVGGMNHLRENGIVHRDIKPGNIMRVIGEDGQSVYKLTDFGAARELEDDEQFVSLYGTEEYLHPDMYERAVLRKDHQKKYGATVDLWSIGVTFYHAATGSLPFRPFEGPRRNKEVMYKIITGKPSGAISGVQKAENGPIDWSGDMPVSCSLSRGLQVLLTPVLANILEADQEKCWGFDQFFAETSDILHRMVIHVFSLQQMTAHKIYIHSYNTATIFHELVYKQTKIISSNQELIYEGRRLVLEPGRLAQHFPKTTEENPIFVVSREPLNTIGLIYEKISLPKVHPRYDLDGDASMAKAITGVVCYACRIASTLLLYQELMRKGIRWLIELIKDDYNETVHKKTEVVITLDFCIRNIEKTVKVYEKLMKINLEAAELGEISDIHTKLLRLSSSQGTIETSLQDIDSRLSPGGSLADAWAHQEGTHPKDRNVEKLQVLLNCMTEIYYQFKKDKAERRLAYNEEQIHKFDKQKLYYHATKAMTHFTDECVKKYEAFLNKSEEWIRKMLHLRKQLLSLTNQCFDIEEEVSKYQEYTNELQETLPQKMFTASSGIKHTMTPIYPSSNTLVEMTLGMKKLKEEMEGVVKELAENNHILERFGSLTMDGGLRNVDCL
ASSAY NOTES: TBK Biochemical Assay
EXPERIMENTAL SETUP: read-out: TBK1 IC50
Structures can show the parent of a compound that is named as a salt.
PROPERTY: IC50

Input line: Checklist item: IC50 tested on TBK1 (Homo sapiens, UniProt Q9UHD2), entry COc1cc(C(=O)N(C)C)cnc1-c1cc2nccc(-c3ccc(NC4C5COCC54)c(C#N)c3)c2o1 (centres unmarked) , value?
Output line: < 100 nM

Input line: Checklist item: IC50 tested on TBK1 (Homo sapiens, UniProt Q9UHD2), entry COc1cc(C(=O)N(C)CCO)cnc1-c1cc2ncc(C(C)C)c(-c3ccc(OC4CCOCC4)c(C#N)c3)c2o1 , value?
Output line: > 5000 nM

Input line: Checklist item: IC50 tested on TBK1 (Homo sapiens, UniProt Q9UHD2), entry CN(C)C(=O)c1ccc(-c2cc3ncc(C4CC4)c(-c4ccc(NC5CCOCC5)c(C#N)c4)c3o2)c(F)c1 , value?
Output line: > 5000 nM

Input line: Checklist item: IC50 tested on TBK1 (Homo sapiens, UniProt Q9UHD2), entry COc1nc(C(=O)N(C)C)ccc1-c1cc2nccc(-c3ccc(N4CC[C@H](F)C4)c(C#N)c3)c2o1 , value?
Output line: < 100 nM

Input line: Checklist item: IC50 tested on TBK1 (Homo sapiens, UniProt Q9UHD2), entry CCC(CO)(CO)NC(=O)c1ccc(-c2cc3nccc(-c4ccc(OC5CCOCC5)c(C#N)c4)c3o2)c(OC)c1 , value?
Output line: < 100 nM

Input line: Checklist item: IC50 tested on TBK1 (Homo sapiens, UniProt Q9UHD2), entry COc1cc(C(=O)N(C)OC)ccc1-c1cc2nccc(-c3ccc(OC4CCOCC4)c(C#N)c3)c2o1 , value?
Output line: < 100 nM

Input line: Checklist item: IC50 tested on TBK1 (Homo sapiens, UniProt Q9UHD2), entry CN(C)C(=O)c1ccc(-c2cc3nccc(-c4ccc(C(C)(C)N5CCOCC5)c(C#N)c4)c3o2)cc1 [Compound 223, hydrochloride] , value?
Output line: < 100 nM

Input line: Checklist item: IC50 tested on TBK1 (Homo sapiens, UniProt Q9UHD2), entry COc1ccc(-c2ccnc3cc(-c4ccc(C(=O)N(C)C)cc4)oc23)cc1C#N , value?
Output line: 100 to 1000 nM

Input line: Checklist item: IC50 tested on TBK1 (Homo sapiens, UniProt Q9UHD2), entry N#Cc1cc(-c2ccnc3cc(-c4ccc(C(=O)N[C@@H]5CNCC[C@H]5F)cc4)oc23)ccc1OC1CCOCC1 , value?
Output line: < 100 nM

Input line: Checklist item: IC50 tested on TBK1 (Homo sapiens, UniProt Q9UHD2), entry COc1cc(C(=O)N2CCN(C)CC2)cnc1-c1cc2nccc(-c3ccc(N4CC[C@@H](F)C4)c(C#N)c3)c2o1 , value?
Output line: < 100 nM

Input line: Checklist item: IC50 tested on TBK1 (Homo sapiens, UniProt Q9UHD2), entry COc1cc(C(=O)N2C[C@@H]3C[C@H]2CN3C)ccc1-c1cc2nccc(-c3ccc(OC4CCOCC4)c(C#N)c3)c2o1 , value?
Output line: < 100 nM

Input line: Checklist item: IC50 tested on TBK1 (Homo sapiens, UniProt Q9UHD2), entry COc1cc(C(=O)N(C)C)ccc1-c1cc2nccc(-c3ccc(NC4CCOC4)c(C#N)c3)c2o1 (centres unmarked) , value?
Output line: < 100 nM

Input line: Checklist item: IC50 tested on TBK1 (Homo sapiens, UniProt Q9UHD2), entry CCc1cc(C(=O)N(C)C)ccc1-c1cc2nccc(-c3ccc(OC4CCOCC4)c(C#N)c3)c2o1 , value?
Output line: < 100 nM

Input line: Checklist item: IC50 tested on TBK1 (Homo sapiens, UniProt Q9UHD2), entry COc1cc(C(=O)NC2(CN(C)C)CCC2)ccc1-c1cc2nccc(-c3ccc(OC4CCOCC4)c(C#N)c3)c2o1 , value?
Output line: < 100 nM

Data origin, for the record: patent US10428080B2
